Assay: in vitro
Details: human, hela cells, % viability
PROPERTY_MEASURED: viability at 28.5 h, 10 µM (%)
Report only the number, with the unit % understood.

Prompt line: Return viability at 28.5 h, 10 µM for the following compound: NC(=O)C1(Cc2ccc(-c3ccccc3)cc2)CCN(C(=O)CCc2ccccc2)CC1
Response line: 102

Prompt line: Return viability at 28.5 h, 10 µM for the following compound: Cc1noc(C)c1S(=O)(=O)NCC(=O)N1CCOCC1
Response line: 94.9

Prompt line: Return viability at 28.5 h, 10 µM for the following compound: N#Cc1c(Nc2cccc(F)c2)sc2c(O)cc(O)nc12
Response line: 100

Prompt line: Return viability at 28.5 h, 10 µM for the following compound: Cn1nccc1C(=O)NC1CCN(CC2(c3ccccc3)CC2)CC1
Response line: 106

Prompt line: Return viability at 28.5 h, 10 µM for the following compound: O/N=C1/c2ccccc2/C(=N/O)C1c1ccccc1
Response line: 75.2

Prompt line: Return viability at 28.5 h, 10 µM for the following compound: COc1ccc(C(NC(=O)C2CCN(C(=O)C(C)(C)C)CC2)c2cnccn2)cc1 (centres unmarked)
Response line: 97

Prompt line: Return viability at 28.5 h, 10 µM for the following compound: O=[N+]([O-])c1ccccc1S(=O)(=O)N1CCN(S(=O)(=O)c2ccc(Cl)cc2)CC1
Response line: 98.6

Prompt line: Return viability at 28.5 h, 10 µM for the following compound: O=C(O)c1ccc2c(c1)C(=O)N(CCCN1CCOCC1)C2=O
Response line: 102

Prompt line: Return viability at 28.5 h, 10 µM for the following compound: Cc1ccc(S(N)(=O)=O)cc1C(=O)OCC(=O)c1ccccc1
Response line: 113

Prompt line: Return viability at 28.5 h, 10 µM for the following compound: CC(=O)C(Sc1nc(NC(C)C)nc(N(C)C)n1)C(C)=O
Response line: 90.8

Prompt line: Return viability at 28.5 h, 10 µM for the following compound: N#CCCN1CCCC2(C1)NCCc1c2[nH]c2ccccc12 (centres unmarked)
Response line: 97

Prompt line: Return viability at 28.5 h, 10 µM for the following compound: COc1cc(C)c(Cl)cc1S(=O)(=O)NCCCN1CCOCC1
Response line: 97.1

Prompt line: Return viability at 28.5 h, 10 µM for the following compound: CC(=O)N1CCC2(CCCC[C@H]3CN(Cc4coc(C)n4)CC[C@@H]3NC(=O)CNC2=O)CC1
Response line: 101

Prompt line: Return viability at 28.5 h, 10 µM for the following compound: O=C(N[C@H]1CO[C@H]2[C@@H]1OC[C@@H]2n1nnnc1Oc1ccc(-n2ccnc2)cc1)c1ccco1
Response line: 91.9

Prompt line: Return viability at 28.5 h, 10 µM for the following compound: O=C(C1CCCC1)N1CCCC1c1nc2ccccc2[nH]1 (centres unmarked)
Response line: 88.5

Prompt line: Return viability at 28.5 h, 10 µM for the following compound: C=CCC1(CC=C)CCN1C(=O)c1cc2c([nH]c1=O)CCCCC2
Response line: 103

Prompt line: Return viability at 28.5 h, 10 µM for the following compound: O=c1[nH]c2ccccc2n1CCCN1CCC[C@@H]1CN1CCCC1 [CBK137111T]
Response line: 93.5

Prompt line: Return viability at 28.5 h, 10 µM for the following compound: CC1CN(C(=O)NC(=O)c2ccc(-c3csnn3)cc2)CC(C)O1 (centres unmarked)
Response line: 87.7

Prompt line: Return viability at 28.5 h, 10 µM for the following compound: CCN(CC)C(=O)c1sccc1NS(=O)(=O)Cc1ccccc1
Response line: 106

Prompt line: Return viability at 28.5 h, 10 µM for the following compound: C#CCNS(=O)(=O)c1cccc(C(=O)N2CCOC(CC(=O)OC)C2)c1 (centres unmarked)
Response line: 90.8

Prompt line: Return viability at 28.5 h, 10 µM for the following compound: CN1CCC(N2CCN(C(=O)Nc3ccc4c(c3)OCCO4)CC2)CC1
Response line: 87

Prompt line: Return viability at 28.5 h, 10 µM for the following compound: COCCCOc1cc(N2CCCC2)ncn1
Response line: 102

Prompt line: Return viability at 28.5 h, 10 µM for the following compound: Cc1nc2cccnc2n1C1CCN(C(=O)NCc2ccccc2)CC1
Response line: 87.5

Prompt line: Return viability at 28.5 h, 10 µM for the following compound: Cn1c(=O)[nH]c(=O)c2cnc(-c3ccc(Cl)cc3)nc21
Response line: 95.6

Prompt line: Return viability at 28.5 h, 10 µM for the following compound: CN(CCOc1ccc(CC2SC(=O)NC2=O)cc1)c1ccccn1 (centres unmarked)
Response line: 101

Prompt line: Return viability at 28.5 h, 10 µM for the following compound: CCn1cc(CN2CCCN(C(=O)c3cccn(C)c3=O)CC2)cn1
Response line: 106

Prompt line: Return viability at 28.5 h, 10 µM for the following compound: O=C(Nc1ccccc1C(=O)O)c1cccc(NC(=O)c2ccco2)c1
Response line: 88.1

Prompt line: Return viability at 28.5 h, 10 µM for the following compound: CC(=O)Nc1ccc(S(=O)(=O)N2CCN(C(=O)c3ccco3)CC2)cc1
Response line: 90.5

Prompt line: Return viability at 28.5 h, 10 µM for the following compound: Cc1nn(C)cc1CN1CCCC1c1nc(N(C)C)ncc1-c1cccc(Cl)c1 (centres unmarked)
Response line: 86

Prompt line: Return viability at 28.5 h, 10 µM for the following compound: Cc1ccc(-c2cnc(SCC(N)=O)n2-c2ccccc2)cc1
Response line: 113

Prompt line: Return viability at 28.5 h, 10 µM for the following compound: O=C(NCC1CCCN1)c1cc2cc(Cl)ccc2[nH]1 (centres unmarked) [CBK115917C]
Response line: 104

Prompt line: Return viability at 28.5 h, 10 µM for the following compound: O=C(Nc1ccc2c(c1)OCO2)C1CCN(S(=O)(=O)c2ccc(Oc3ccccc3)cc2)CC1
Response line: 85.1

Prompt line: Return viability at 28.5 h, 10 µM for the following compound: CC(=O)Nc1cccc(-n2cnnc2SCC2CCCCC2)c1
Response line: 96.2

Prompt line: Return viability at 28.5 h, 10 µM for the following compound: Clc1cccc(C2N(Cc3ccccc3)CCN2Cc2ccccc2)c1
Response line: 93.1

Prompt line: Return viability at 28.5 h, 10 µM for the following compound: Cc1ccc2nc3c(cc(C(=O)NC4CCCC4)c(=N)n3Cc3ccco3)c(=O)n2c1
Response line: 81

Prompt line: Return viability at 28.5 h, 10 µM for the following compound: COc1ccc2[nH]c(SCC(=O)Nc3ccc(Br)cc3)nc2c1
Response line: 91

Prompt line: Return viability at 28.5 h, 10 µM for the following compound: Cc1cc(C)n(-c2nc3cc(Cl)ccc3nc2Nc2ccc3c(c2)OCO3)n1
Response line: 91.9

Prompt line: Return viability at 28.5 h, 10 µM for the following compound: Cc1c(-c2cccc(C(=O)N(CCO)C3CCS(=O)(=O)C3)c2)cnn1C (centres unmarked)
Response line: 86.5

All values here come from paper PMC12040169.
